Record form. Attribute: Activity. Fill in for each entry.
- System: A549
- Experiment Summary: Cell cycle arrest in human A549 cells assessed as greater than 4N DNA accumulation at 5 times EC50 after 48 hrs by FACS analysis relative to control
- Format: functional
Express the result in % but write the number alone.

Input: Which Activity value belongs to CN(C)Cc1ccc(-c2cc3c(-c4cnn(C)c4)c(Cl)cnc3[nH]2)cc1 ?
Output: 15

Input: Which Activity value belongs to CN(C)Cc1ccc(-c2cc3c(-c4cnn(C)c4)ccnc3[nH]2)cc1 ?
Output: 2

Input: Which Activity value belongs to CN(C)Cc1cccc(-c2cc3c(-c4cnn(C)c4)c(Cl)cnc3[nH]2)c1 ?
Output: 30

Input: Which Activity value belongs to CN(C)Cc1cccc(-c2cc3c(-c4cnn(C)c4)ccnc3[nH]2)c1 ?
Output: 3

Input: Which Activity value belongs to CCn1cc(-c2ccnc3[nH]c(-c4cccc(CN(C)C)c4)cc23)c(-c2ccc(NC(=O)N(C)C)cc2)n1 ?
Output: 47

----------
- Experimental System: Aurora kinase B/Inner centromere protein (Homo sapiens)
- Sequence (Q96GD4 whole entry): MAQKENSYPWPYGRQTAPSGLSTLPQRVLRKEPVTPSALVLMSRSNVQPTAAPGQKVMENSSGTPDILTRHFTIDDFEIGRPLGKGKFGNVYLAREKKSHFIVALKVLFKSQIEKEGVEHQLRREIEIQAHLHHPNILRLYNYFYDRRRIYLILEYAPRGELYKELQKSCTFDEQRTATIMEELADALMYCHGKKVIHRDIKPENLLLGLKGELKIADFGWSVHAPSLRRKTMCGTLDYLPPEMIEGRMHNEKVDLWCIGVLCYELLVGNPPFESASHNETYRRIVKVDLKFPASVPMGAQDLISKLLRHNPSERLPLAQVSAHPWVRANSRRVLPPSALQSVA
- Sequence (Q9NQS7 whole entry, further chain): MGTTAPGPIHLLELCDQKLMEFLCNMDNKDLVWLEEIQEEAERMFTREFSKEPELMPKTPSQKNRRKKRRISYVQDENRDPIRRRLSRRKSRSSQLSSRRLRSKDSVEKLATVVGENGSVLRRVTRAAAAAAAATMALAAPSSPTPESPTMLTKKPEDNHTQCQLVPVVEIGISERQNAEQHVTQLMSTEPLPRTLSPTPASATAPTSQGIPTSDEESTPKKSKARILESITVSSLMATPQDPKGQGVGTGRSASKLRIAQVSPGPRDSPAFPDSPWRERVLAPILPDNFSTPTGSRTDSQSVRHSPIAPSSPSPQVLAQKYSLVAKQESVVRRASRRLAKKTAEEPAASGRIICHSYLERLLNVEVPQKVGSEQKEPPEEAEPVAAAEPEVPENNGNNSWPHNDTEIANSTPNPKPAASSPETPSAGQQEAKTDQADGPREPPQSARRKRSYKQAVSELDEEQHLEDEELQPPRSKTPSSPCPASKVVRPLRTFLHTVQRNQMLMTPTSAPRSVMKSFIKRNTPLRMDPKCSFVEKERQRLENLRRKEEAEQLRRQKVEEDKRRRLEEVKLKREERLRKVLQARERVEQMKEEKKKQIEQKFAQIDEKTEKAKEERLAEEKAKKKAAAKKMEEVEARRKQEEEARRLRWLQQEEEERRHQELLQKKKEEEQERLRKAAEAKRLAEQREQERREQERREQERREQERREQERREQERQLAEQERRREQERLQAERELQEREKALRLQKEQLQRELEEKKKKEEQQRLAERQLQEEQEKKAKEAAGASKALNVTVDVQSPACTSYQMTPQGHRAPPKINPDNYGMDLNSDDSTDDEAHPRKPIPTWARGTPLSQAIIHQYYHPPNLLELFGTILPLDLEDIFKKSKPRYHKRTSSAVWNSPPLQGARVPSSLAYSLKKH
- Experiment Summary: Inhibition of human recombinant aurora B/INCENP complex after 120 mins by IMAP fluorescence polarization assay
- Assay type: protein-complex assay
- Measurement Parameters: read-out: IC50
Endpoint Label: pIC50
Friendly reminder that pIC50 comes from taking -log10 of the concentration in mol/L.

Input: Which pIC50 value belongs to CN(C)Cc1ccc(-c2cc3c(-c4cnn(C)c4)c(Cl)cnc3[nH]2)cc1 ?
Output: 9.21

Input: Which pIC50 value belongs to CCn1cc(-c2ccnc3[nH]c(-c4cccc(CN(C)C)c4)cc23)c(-c2ccc(NC(=O)N(C)C)cc2)n1 ?
Output: 8.49

Input: Which pIC50 value belongs to Cn1cc(-c2ccnc3[nH]ccc23)cn1 ?
Output: 6.10

Input: Which pIC50 value belongs to c1cc(-c2cn[nH]c2)c2cc[nH]c2n1 ?
Output: 6.11

Input: Which pIC50 value belongs to CN(C)Cc1ccc(-c2cc3c(-c4cnn(C)c4)ccnc3[nH]2)cc1 ?
Output: 8.23

Input: Which pIC50 value belongs to CN(C)Cc1cccc(-c2cc3c(-c4cnn(C)c4)ccnc3[nH]2)c1 ?
Output: 8.24

Input: Which pIC50 value belongs to CN(C)Cc1cccc(-c2cc3c(-c4cnn(C)c4)c(Cl)cnc3[nH]2)c1 ?
Output: 9.29

Input: Which pIC50 value belongs to CCn1cc(-c2ccnc3[nH]ccc23)c(-c2ccc(NC(=O)N(C)C)cc2)n1 ?
Output: 7.59

----------
- Experimental System: Aurora kinase B (Homo sapiens, UniProt Q96GD4)
- Sequence (Q96GD4 whole entry): as the sequence (Q96GD4 whole entry) above
- Experiment Summary: Inhibition of aurora B assessed as inhibition of histone H3 phosphorylation by ELISA based cellular mechanistic assay
// returns false unless IC50 is strictly below 100 nM, in which case true

Input: Item CN(C)Cc1ccc(-c2cc3c(-c4cnn(C)c4)ccnc3[nH]2)cc1 : IC50 beneath 100 nM, strictly?
Output: false

Input: Item CN(C)Cc1cccc(-c2cc3c(-c4cnn(C)c4)ccnc3[nH]2)c1 : IC50 beneath 100 nM, strictly?
Output: false

Input: Item CCn1cc(-c2ccnc3[nH]c(-c4cccc(CN(C)C)c4)cc23)c(-c2ccc(NC(=O)N(C)C)cc2)n1 : IC50 beneath 100 nM, strictly?
Output: true

Input: Item CN(C)Cc1cccc(-c2cc3c(-c4cnn(C)c4)c(Cl)cnc3[nH]2)c1 : IC50 beneath 100 nM, strictly?
Output: true

Input: Item Cn1cc(-c2ccnc3[nH]ccc23)cn1 : IC50 beneath 100 nM, strictly?
Output: false

Input: Item c1cc(-c2cn[nH]c2)c2cc[nH]c2n1 : IC50 beneath 100 nM, strictly?
Output: false

Input: Item CN(C)Cc1ccc(-c2cc3c(-c4cnn(C)c4)c(Cl)cnc3[nH]2)cc1 : IC50 beneath 100 nM, strictly?
Output: true
